Consider the following compounds; for each one, report its IC50.
Target: HCV NS3/4A protease genotype 1b (Hepatitis C virus genotype 1b)
Assay: HCV NS3/4A protease time-resolved fluorescence (TRF) assay, Ki against genotype 1b
Format: biochemical
Details: IC50 [gt-1b] (nM), NS3/4A genotype 1b, enzyme 0.2 nM
Text: Measuring NS3/4A Inhibitory Activity (Ki) Against Genotype 1b, Against A156T Mutants and Against Genotype 3a One assay for measuring inhibitory activity is HCV NS3 protease time-resolved fluorescence (TRF) assay as described below and in Mao et al., Anal. Biochem. 373:1-8, 2008 and International Patent Application Publication WO 2006/102087. […]
The answer consists of two parts: a number and, after it, its unit.

Enquiry: Which IC50 value is on record for Cc1nc2ccccc2c2c1O[C@]1(CC2)C[C@H]2C(=O)N[C@]3(C(=O)NS(=O)(=O)C4(C)CC4)C[C@H]3/C=C\CCCCC[C@H](NC(=O)O[C@H]3C[C@H]4CC[C@@H]3C4)C(=O)N2C1 ?
Return: 0.017 nM

Enquiry: Now the compound COc1ccc2nc(C(F)(F)F)c3c(c2c1)CC[C@]1(C[C@H]2C(=O)N[C@]4(C(=O)NS(=O)(=O)C5(C)CC5)C[C@H]4/C=C\CCCCC[C@H](NC(=O)OCC(C)C)C(=O)N2C1)O3
Return: 0.016 nM

Enquiry: Query COc1ccc2c3c(c(C4CC4)nc2c1)O[C@]1(CC3)C[C@H]2C(=O)N[C@]3(C(=O)NS(=O)(=O)C4(C)CC4)C[C@H]3/C=C\CCCCC[C@H](NC(=O)NC3CCCC3)C(=O)N2C1 next
Return: 0.007 nM

Enquiry: And the next one, Cc1nc2ccc(OCC(F)(F)F)cc2c2c1O[C@]1(CC2)C[C@H]2C(=O)N[C@]3(C(=O)NS(=O)(=O)C4(C)CC4)C[C@H]3/C=C\CCCCC[C@H](NC(=O)OCC(C)(C)C)C(=O)N2C1 ?
Return: 0.012 nM

Enquiry: Check CC(C)(C)OC(=O)N[C@H]1CCCCC/C=C\[C@@H]2C[C@@]2(C(=O)NS(=O)(=O)C2(C)CC2)NC(=O)[C@@H]2C[C@]3(CCc4c(c(C5CC5)nc5ccc6c(c45)OCO6)O3)CN2C1=O too.
Return: 0.021 nM
